system: B. amyloliquefaciens ART24; assay: Antibiotic MIC following EFSA testing recommendations on lyophilized ART24 lots and cell banks; type: cell-based, Bacillus amyloliquefaciens; conditions: Bacillus amyloliquefaciens, ART24, source CO-33 ART 24 BHI; read-out: MIC for ART24
Listed here: items and their measured MIC.
attributeMeasured: MIC

smilesstr=COc1cc(Cc2cnc(N)nc2N)cc(OC)c1OC value="≤ 0.25 mg/L"
smilesstr=CC1(C)S[C@@H]2[C@H](NC(=O)[C@H](N)c3ccccc3)C(=O)N2[C@H]1C(=O)O value="≤ 0.03 mg/L"
smilesstr=Cc1ncc([N+](=O)[O-])n1CCO value="> 64 mg/L"
smilesstr=O=C(O)c1cn(C2CC2)c2cc(N3CCNCC3)c(F)cc2c1=O value="≤ 0.03 mg/L"
smilesstr=NC[C@H]1O[C@H](O[C@H]2[C@H](O)[C@@H](O[C@H]3O[C@H](CO)[C@@H](O)[C@H](N)[C@H]3O)[C@H](N)C[C@@H]2N)[C@H](O)[C@@H](O)[C@@H]1O value="≤ 0.5 mg/L"
